Assay Summary: blockers of bacterial quorum-sensing reporter fluorescence – flow cytometry, SAR analogs, SAR follow-up (AID 1014);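 further: Staphylococcus aureus RN6390 with RNAIII-GFP reporter stimulated by AIP; bacteria incubated with compound for 3 hours at 37 °C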
Experimental Context: at 20 µM
Calls of active or inactive are those of the source. No stated cut-off is given here; in the data, active means inhibition of mean fluorescence above about 33%; inactive means the rest.
Select the correct class. Options are true (1) = active, false (0) = inactive and nothing else.

These recorded examples may help you get a feel for the data.
{"columns": ["Compound", "Group Label"],
 "data": [
  ["COc1cccc(C(=O)NCC(c2cccnc2)N2CCN(c3ccccc3F)CC2)c1 (stereo not drawn)", "false (0)"],
  ["COC(=O)c1c(C)oc2cc(Br)c(O)cc12", "false (0)"],
  ["COc1ccc(Nc2nc3c(S(=O)(=O)c4ccc(Br)cc4)nnn3c3ccccc23)cc1", "false (0)"]
]}

Asked: Short answer needed: outcome of this test for CC(=O)c1c(C)oc2ccc(O)cc12 ?
Given back: false (0)

Asked: Continue with O=C(NC1CCCCC1)C(c1cc2c(cc1[N+](=O)[O-])OCO2)N1CCN(c2ccccc2)CC1 (stereo not drawn)
Given back: false (0)

Asked: Continue with O=C(O)c1cccnc1Nc1cccc(SC(F)(F)F)c1
Given back: true (1)

###

Assay Summary: blockers of bacterial quorum-sensing reporter fluorescence – flow cytometry, SAR analogs, SAR follow-up (AID 1014)
Experimental Context: at 20 µM, stronger effect = higher value; measured here: percent reporter-positive cells
Measurement Label: inhibition of percent positive cells (%)
Numeric answer only, unit % assumed.

Recorded results for 8 compounds are shown here.
{"columns": ["Compound", "Output Unit", "Reported"],
 "data": [
  ["CC1CCN(c2c(NCC3CCC(C(=O)NCc4ccc5c(c4)OCO5)CC3)c(=O)c2=O)CC1 (stereo unspecified)", "%", -0.6],
  ["COc1ccc(Nc2nc3c(S(=O)(=O)c4ccc(Br)cc4)nnn3c3ccccc23)cc1", "%", -0.8],
  ["CN1CCN(C(=O)C(=O)Nc2ccc3c(c2)OCO3)CC1", "%", 0.1],
  ["CC(C)c1ccc(NC(=O)C(c2cc3c(cc2[N+](=O)[O-])OCO3)N2CCOCC2)cc1 (stereo unspecified)", "%", 0.7],
  ["Cc1ccc(S(=O)(=O)c2nnn3c2nc(Nc2cccc(C)c2)c2ccccc23)cc1", "%", 1.5],
  ["O=C(NCC(c1cccnc1)N1CCN(c2ccccc2)CC1)c1ccc(F)cc1 (stereo unspecified)", "%", -0.8],
  ["CCOC(=O)c1c(-c2ccccc2)oc2ccc(O)cc12", "%", -0.9],
  ["O=C(NCC(c1cccnc1)N1CCc2ccccc2C1)c1ccc(F)c(F)c1 (stereo unspecified)", "%", -0.1]
]}

Asked: State the recorded inhibition of percent positive cells for this entry: O=C(NC1CCCC1)C(c1cc2c(cc1[N+](=O)[O-])OCO2)N1CCN(C2CCCCC2)CC1 (stereo unspecified)
Given back: -1.4

Asked: Continue with CC(=O)c1c(C)oc2c1cc(O)c1ccccc12
Given back: -0.2

Asked: Continue with CC1CCN(C(=O)c2oc3ccccc3c2NC(=O)c2ccc3c(c2)OCO3)CC1
Given back: -0.2

Asked: Continue with CC1CCCN(C(C(=O)Nc2ccc(C(C)C)cc2)c2cc3c(cc2[N+](=O)[O-])OCO3)C1 (stereo unspecified)
Given back: -0.2

Asked: Continue with COc1ccccc1N1CCN(C(CNC(=O)c2cccc(Cl)c2)c2cccnc2)CC1 (stereo unspecified)
Given back: 15.4

Asked: Continue with CCOC(=O)C1=C(c2ccccc2)NC(SCC(=O)Nc2sc3c(c2C(=O)OCC)CCCC3)=C(C#N)C1c1ccco1 (stereo unspecified)
Given back: 0.1

Asked: Continue with CC1CCN(CC2CCN(C(=O)Nc3ccc4c(c3)OCCO4)CC2)CC1
Given back: 0

Asked: Continue with COc1ccc(C(=O)c2coc3ccc(O)cc23)cc1
Given back: 0.8

###

Assay Summary: blockers of bacterial quorum-sensing reporter fluorescence – flow cytometry, SAR analogs, SAR follow-up (AID 1014)
Experimental Context: at 20 µM, stronger effect = higher value; measured here: percent reporter-positive cells
Parameter inhibition of percent positive cells: see the listing below.
Numeric answer only, unit % assumed.

Recorded results for 9 molecules are shown here.
{"columns": ["Molecule", "inhibition of percent positive cells / %"],
 "data": [
  ["O=C(Nc1ccc2c(c1)OCO2)C(c1ccccc1)N1CCC2(CC1)OCCO2 (stereo not given)", -0.2],
  ["COc1cccc(Nc2c(F)c(F)c(F)c(F)c2C(=O)O)c1", -0.2],
  ["O=C(NCC(c1cccnc1)N1CCN(c2ccccc2F)CC1)C1CC1 (stereo not given)", -0.7],
  ["COc1ccc(CC(=O)Nc2oc(-c3ccccc3)c(-c3ccccc3)c2C#N)cc1", 1.3],
  ["Cc1ccc(C)c(S(=O)(=O)c2n[nH]n3c2nc(=O)c2sccc23)c1", 0],
  ["COc1ccc(Nc2nc3c(S(=O)(=O)c4ccc(C(C)(C)C)cc4)nnn3c3ccccc23)cc1", -0.8],
  ["COc1c(F)c(F)c(C(=O)O)c(Nc2cc(C)cc(C)c2)c1F", -2],
  ["CC(C)c1ccc(NC(=O)C(c2cc3c(cc2[N+](=O)[O-])OCO3)N2CCCCC2)cc1 (stereo not given)", -0.2],
  ["Cc1ccc(S(=O)(=O)c2nnn3c2nc(Nc2ccc(Oc4ccccc4)cc2)c2ccccc23)cc1", 0]
]}

Consider now this further molecule.
Asked: State the recorded inhibition of percent positive cells for this entry: CC(=O)Nc1ccc(Nc2nc3c(S(=O)(=O)c4ccc(C(C)C)cc4)nnn3c3ccccc23)cc1
Given back: 0.4

###

Assay Summary: blockers of bacterial quorum-sensing reporter fluorescence – flow cytometry, SAR analogs, SAR follow-up (AID 1014);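 further: Staphylococcus aureus RN6390 with RNAIII-GFP reporter stimulated by AIP; bacteria incubated with compound for 3 hours at 37 °C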
Experimental Context: at 20 µM, stronger effect = higher value
Measurement Label: inhibition of mean fluorescence (%)
Numeric answer only, unit % assumed.

Recorded results for 2 compounds are shown here.
{"columns": ["Compound", "Measurement Label", "Reported"],
 "data": [
  ["Cc1oc2ccc(O)cc2c1C(=O)OC(C)C", "inhibition of mean fluorescence", -11.3],
  ["COc1ccc(NC(=O)C(c2cc3c(cc2[N+](=O)[O-])OCO3)N2CC(C)CC(C)C2)cc1 (stereo not given)", "inhibition of mean fluorescence", 49.3]
]}

Asked: State the recorded inhibition of mean fluorescence for this entry: COc1cccc(C(=O)NCC(c2cccnc2)N2CCN(c3ccc(F)cc3)CC2)c1 (stereo not given)
Given back: 8.6

Asked: Continue with O=C(Nc1ccc2c(c1)OCCO2)C(c1ccc(F)cc1)N1CCCCC1 (stereo not given)
Given back: 12.6

Asked: Continue with O=C(NCCN1CCN(c2ccccc2F)CC1)c1ccc2c(Cl)c3c(nc2c1)CCCC3
Given back: 4.8

###

Parameter inhibition of mean fluorescence: see the listing below.
Assay Summary: blockers of bacterial quorum-sensing reporter fluorescence – flow cytometry, SAR analogs, SAR follow-up (AID 1014);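 further: Staphylococcus aureus RN6390 with RNAIII-GFP reporter stimulated by AIP; bacteria incubated with compound for 3 hours at 37 °C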
Experimental Context: at 20 µM, stronger effect = higher value
Numeric answer only, unit % assumed.

{"columns": ["Compound", "inhibition of mean fluorescence, %"],
 "data": [
  ["CC(C)c1ccc(NC(=O)C(c2cc3c(cc2[N+](=O)[O-])OCO3)N2CCOCC2)cc1 (stereo not given)", 8.1],
  ["CCc1ccc(S(=O)(=O)c2nnn3c2nc(Nc2ccc(OC)cc2)c2sccc23)cc1", 5.8],
  ["O=C(NC1CCCC1)C(c1cc2c(cc1[N+](=O)[O-])OCO2)N1CCCC1 (stereo not given)", -3.7]
]}

Asked: State the recorded inhibition of mean fluorescence for this entry: O=C(NCC(c1cccnc1)N1CCN(c2ccc(F)cc2)CC1)c1ccc(F)cc1 (stereo not given)
Given back: -11.6

Asked: Continue with Cc1nnc(N2CCCC(C(=O)Nc3ccc4c(c3)OCO4)C2)c2nn(-c3ccccc3)c(C)c12 (stereo not given)
Given back: -10.1

Asked: Continue with O=C(Nc1ccc2c(c1)OCCO2)N1CCCC(CN2CCc3ccccc3C2)C1 (stereo not given)
Given back: -1.4

Asked: Continue with O=C(NCC(c1cccnc1)N1CCc2ccccc2C1)c1ccc(F)c(F)c1 (stereo not given)
Given back: -6.4

Asked: Continue with Cc1cc(C)nc(Nc2ccccc2C(=O)O)n1
Given back: 22.7

Asked: Continue with COc1ccc(Nc2ccccc2C(=O)O)cc1
Given back: 0.6

Asked: Continue with COc1ccc(Nc2nc3c(S(=O)(=O)c4ccc(C)cc4)nnn3c3ccsc23)cc1
Given back: -6.2

###

Assay Summary: blockers of bacterial quorum-sensing reporter fluorescence – flow cytometry, SAR analogs, SAR follow-up (AID 1014);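 further: Staphylococcus aureus RN6390 with RNAIII-GFP reporter stimulated by AIP; bacteria incubated with compound for 3 hours at 37 °C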
Experimental Context: at 20 µM, stronger effect = higher value; measured here: percent reporter-positive cells
Parameter inhibition of percent positive cells: see the listing below.
Numeric answer only, unit % assumed.

{"columns": ["Compound", "Measurement Label", "Reported"],
 "data": [
  ["COc1cccc(C(=O)NCC(c2cccnc2)N2CCN(c3ccccc3F)CC2)c1 (stereo not given)", "inhibition of percent positive cells", -1.4],
  ["CC1CC(C)CN(C(C(=O)Nc2ccc(C(C)C)cc2)c2cc3c(cc2[N+](=O)[O-])OCO3)C1 (stereo not given)", "inhibition of percent positive cells", -0.1],
  ["O=C(NCC(c1cccnc1)N1CCc2ccccc21)c1cccc(F)c1 (stereo not given)", "inhibition of percent positive cells", -2],
  ["O=C(NCC(c1cccnc1)N1CCN(c2ccccc2F)CC1)c1cccs1 (stereo not given)", "inhibition of percent positive cells", -0.4]
]}

Consider now this further compound.
Asked: State the recorded inhibition of percent positive cells for this entry: O=C(NCC(c1cccnc1)N1CCN(c2ccc(F)cc2)CC1)c1ccc(F)cc1 (stereo not given)
Given back: -0.2
